Values compiled from the supplement of paper PMC10567573.

Recorded protein stability index by entry
B1: ACSBG2 (parent)
chain: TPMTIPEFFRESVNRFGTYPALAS

- Variants of: B1
- procedure.text: protein stability index of a GFP-peptide fusion (GPS, HEK-293T) (PSI 1-6); higher = more stable;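 further: lentivirally expressed fusions sorted by FACS into six bins by GFP to DsRed ratio, PSI derived from sequencing read proportions per bin multiplied by bin number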
- condition.label: c terminus: a fixed tail appended
Answer field: number only, no words.

Worked set:
alteration: P6I
value.observed: 3
--
alteration: A23H
value.observed: 2.43
--
alteration: G17Q
value.observed: 1.86

input: Tell me the measured protein stability index of S12A , please.
output: 1.97
